- experimental.target: 15-hydroxyprostaglandin dehydrogenase [NAD(+)] (Homo sapiens)
- protocol.notes: qHTS Assay for Inhibitors of HPGD (15-Hydroxyprostaglandin Dehydrogenase); as to activity change, negative = inhibition: % is scaled to controls: 0 for no effect and ±100 for the full control effect
- cond: purified HPGD, NADH fluorescence kinetic, PGE2 substrate; active compounds read low
Out of some 150,000 compounds screened, about 6,500 (4.3%) were called active. Inconclusive results (about 12%) are left out. What follows is part of a selection rich in actives, with near analogues and random picks from the rest.
The entries below come with measured activity change, negative = inhibition values attached.
experimental.readout: activity change, negative = inhibition (%)

O=C(NN1C(=O)C2C3C=CC(O3)C2C1=O)c1ccncc1 (stereo not given): 2.88
Cc1nnc(SCC(=O)N2CCc3ccccc3C2)s1: -6.45
COc1cc(OC)cc(-c2nc3nc(C)c(CCC(=O)NCc4ccco4)c(C)n3n2)c1: -10.9
O=C(NCC1CCCO1)c1ccc2ccccc2n1 (stereo not given): -27.3
Cc1cccc(NC(=O)CN2C(=O)CNC2=O)c1: -7.22

###

- experimental.target: 15-hydroxyprostaglandin dehydrogenase [NAD(+)] (Homo sapiens) (UniProt P15428)
- Sequence (P15428 whole entry, looked up): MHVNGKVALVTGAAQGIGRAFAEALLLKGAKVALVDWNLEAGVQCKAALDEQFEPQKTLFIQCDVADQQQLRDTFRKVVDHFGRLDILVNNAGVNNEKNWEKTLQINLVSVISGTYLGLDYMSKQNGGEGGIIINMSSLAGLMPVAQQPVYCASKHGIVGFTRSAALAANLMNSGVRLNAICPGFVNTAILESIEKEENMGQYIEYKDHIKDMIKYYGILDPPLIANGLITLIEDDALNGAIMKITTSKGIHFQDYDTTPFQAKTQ
- protocol.notes: qHTS Assay for Inhibitors of HPGD (15-Hydroxyprostaglandin Dehydrogenase); also: potency is read from the fitted curve at half-maximal effect
- cond: purified HPGD, NADH fluorescence kinetic, PGE2 substrate
About 6,500 (4.3%) of roughly 150,000 compounds were called active. Not shown: some 12% with an inconclusive outcome. The full list was thinned out, with actives kept by preference.
experimental.readout: Potency

Cc1c(O)c(Br)c(C)c(O)c1Br (tested in a mixture with another compound): 0.891 µM (active)
CCOc1c(Br)cc(/C=C2\C(=O)N(CCC#N)N=C2C)cc1OC: 5.01 µM (active)
O=C(/C=C/c1ccc(Cl)cc1Cl)NCc1ccco1: 15.8 µM (active)
O=C(Cc1ccc2c(c1)CCCC2)Nc1ccccc1Cl: 3.16 µM (active)

###

- experimental.target: 15-hydroxyprostaglandin dehydrogenase [NAD(+)] (Homo sapiens) (UniProt P15428)
- protocol.notes: qHTS Assay for Inhibitors of HPGD (15-Hydroxyprostaglandin Dehydrogenase); also: potency is read from the fitted curve at half-maximal effect
- cond: purified HPGD, NADH fluorescence kinetic, PGE2 substrate
- Excerpt: Human 15-Hydroxyprostaglandin dehydrogenase (HPGD) catalyzes the inactivation of prostaglandin E2, and plays a major role in cancer biology by antagonizing the oncogenic potential of cyclooxygenase type 2 (COX2). Assays are available, based on absorbance/fluorescence increase of NADH with the substrate 15-OH prostaglandin E2. References 1. […] An increase in the fluorescence intensity due to conversion of NAD+ to NADH was used to measure the enzyme activity. […]
In all, about 150,000 compounds went through this assay and about 6,500 (4.3%) were called active. About 12% were inconclusive and are not listed. This is one part of a sample in which actives are shown more often than they occur.
experimental.readout: Potency

CCc1c(C)sc(NC(=O)c2cccs2)c1C(N)=O: 8.91 µM (active)
CC(C)Oc1ccc(CCc2n[nH]c(=S)n2Cc2ccccc2)cc1: 10 µM (active)
O=[N+]([O-])c1ccccc1/C=N/n1c(COc2ccccc2)n[nH]c1=S: 7.08 µM (active)

###

- experimental.target: 15-hydroxyprostaglandin dehydrogenase [NAD(+)] (Homo sapiens)
- protocol.notes: qHTS Assay for Inhibitors of HPGD (15-Hydroxyprostaglandin Dehydrogenase); as to activity change, negative = inhibition: % is scaled to controls: 0 for no effect and ±100 for the full control effect
- cond: purified HPGD, NADH fluorescence kinetic, PGE2 substrate; active compounds read low
The whole screen tested about 150,000 compounds, of which about 6,500 (4.3%) were called active. Roughly 12% stayed inconclusive and do not appear here. This excerpt belongs to a sample that is enriched for actives.
experimental.readout: activity change, negative = inhibition (%)

CSCCC(Nc1ccc(S(=O)(=O)N2CCOCC2)cc1[N+](=O)[O-])C(=O)OCC(=O)N(C(C)C)C(C)C (centres undefined): -2.59
CCOC(=O)C1=C(C)NC(=S)NC1c1cccs1 (centres undefined): -5.68
O=C(NC1CCCC1)C(NS(=O)(=O)c1ccc(Br)s1)c1ccccc1 (centres undefined): -1.61
CCC(C(=O)OCC(=O)Nc1ccc(C(=O)Nc2ccc(OC)cc2)cc1)c1ccccc1 (centres undefined): -12.4
